target: Caspase-2 (Homo sapiens, UniProt P42575); construct: mixing the compounds with the respective active caspases; purchased BioVision K152-100; experiment: Caspase-2 inhibitor screening assay (BioVision kit, VDVAD-AFC); type: biochemical; conditions: read-out: % Inhibition at 100 uM Casp2
Sequence (P42575 170-325 limits assumed): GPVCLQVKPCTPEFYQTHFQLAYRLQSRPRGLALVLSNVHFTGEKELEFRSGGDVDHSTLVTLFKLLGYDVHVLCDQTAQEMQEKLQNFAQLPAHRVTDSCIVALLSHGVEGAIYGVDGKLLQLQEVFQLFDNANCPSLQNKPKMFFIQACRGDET
Sequence (P42575 334-452 limits assumed): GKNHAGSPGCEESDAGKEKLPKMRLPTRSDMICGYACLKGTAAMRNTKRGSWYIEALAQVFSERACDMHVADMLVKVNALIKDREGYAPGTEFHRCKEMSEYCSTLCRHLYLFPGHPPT
Structures can show the parent of a compound that is named as a salt.
Parameter: inhibition at 100 µM (%)
Answers are plain numbers, in %.

Molecule	inhibition at 100 µM [%]
CC(C)[C@H](NC(=O)OCc1ccccc1)C(=O)N[C@H](/C=C/S(C)(=O)=O)CC(=O)O [Compound 3, Z-Val-Asp methyl vinyl sulfone]	0
CS(=O)(=O)/C=C/[C@H](CC(=O)O)NC(=O)C1CCCN1C(=O)[C@@H](NC(=O)[C@H](CC(=O)O)NC(=O)OCc1ccccc1)C1CC1 (stereo in doubt) [Compound 28]	79
CC(C)(C)[C@H](NC(=O)c1ccc2ncccc2c1)C(=O)N1CCCC1C(=O)N[C@H](/C=C/S(C)(=O)=O)CC(=O)O (stereo in doubt) [Compound 10]	6
CC(C)(C)[C@H](NC(=O)c1ccc2ncccc2n1)C(=O)N1CCCC1C(=O)N[C@H](/C=C/S(C)(=O)=O)CC(=O)O (stereo in doubt) [Compound 8]	5
CS(=O)(=O)/C(Cl)=C/[C@@H](N)CC(=O)O [Compound 4]	0

Would you kindly look at the next entry?
*Q* May I ask what inhibition at 100 µM has been recorded for CCOC(=O)/C=C/[C@@H](N)CC(=O)O [Compound 44, Asp ethyl vinyl ester tosyl salt] ?
*A* 3

---

So I've got a bunch of molecules here, and I need their inhibition at 10 µM values.
Biological target: Caspase-3 (Homo sapiens, UniProt P42574)
Construct: mixing the compounds with the respective active caspases; purchased BioVision K153-100
Sequence (P42574 29-175 limits assumed): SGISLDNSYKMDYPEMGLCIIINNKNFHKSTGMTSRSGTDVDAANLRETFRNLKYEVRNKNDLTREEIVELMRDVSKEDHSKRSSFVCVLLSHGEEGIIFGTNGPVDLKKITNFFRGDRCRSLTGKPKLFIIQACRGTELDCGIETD
Sequence (P42574 176-277 limits assumed): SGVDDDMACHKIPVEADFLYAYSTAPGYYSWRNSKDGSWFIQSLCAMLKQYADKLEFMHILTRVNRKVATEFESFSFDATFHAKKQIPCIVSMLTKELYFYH
Experiment: Caspase-3 inhibitor screening assay (BioVision kit, DEVD-AFC)
Type: biochemical
Conditions: read-out: % Inhibition at 10 uM Casp3
One number for each entry, in %.

Some molecules with known inhibition at 10 µM results, for comparison:
Molecule	inhibition at 10 µM [%]
CC(C)[C@H](NC(=O)[C@@H](NC(=O)[C@H](CC(=O)O)NC(=O)OCc1ccccc1)c1ccccc1)C(=O)N[C@H](/C=C/S(C)(=O)=O)CCC(=O)O [Compound 84, Z-Asp-Phg-Val-Glu methyl vinyl sulfone]	39
CC(C)(C)[C@H](NC(=O)c1ccc2ccccc2n1)C(=O)N1CCC[C@@H]1C(=O)N[C@H](/C=C/S(C)(=O)=O)CC(=O)O [Compound 6]	1

Would you kindly look at the next entry?
*Q* May I ask what inhibition at 10 µM has been recorded for CC(C)(C)OC(=O)CC[C@H](NC(=O)OC(C)(C)C)C(=O)N[C@H](/C=C/S(C)(=O)=O)CC(=O)OC(C)(C)C [Compound 21] ?
*A* 0

---

target: Caspase-9 (Homo sapiens); construct: purchased BioVision K159-100; assay: Caspase-9 inhibitor screening assay (BioVision kit, LEHD-AFC); type: biochemical; details: 100 uM; read-out: % Inhibition at 100 uM Casp9
Where a name gives a salt, the structure may show the parent alone.
So I've got a bunch of compounds here, and I need their inhibition at 100 µM values.
Numbers only, in %.

Some compounds with known inhibition at 100 µM results, for comparison:
Compound	Unit Abbrev	inhibition at 100 µM
CC(C)[C@H](NC(=O)OCc1ccccc1)C(=O)N[C@H](/C=C/S(C)(=O)=O)CC(=O)O	%	17
CC(C)[C@H](NC(=O)OCc1ccccc1)C(=O)N[C@H](/C=C(\Cl)S(C)(=O)=O)CC(=O)O	%	66
CCC(C)[C@H](NC(=O)[C@H](CCC(=O)O)NC(=O)[C@@H](NC(=O)OCc1ccccc1)C(C)C)C(=O)N[C@H](/C=C/S(C)(=O)=O)CC(=O)O (some centres unmarked)	%	97
CC(C)(C)[C@H](NC(=O)c1ccc2ncccc2c1)C(=O)N1CCCC1C(=O)N[C@H](/C=C/S(C)(=O)=O)CC(=O)O (stereo in doubt)	%	98
CS(=O)(=O)/C=C/[C@H](CC(=O)O)NC(=O)[C@H](CCC(=O)O)NC(=O)c1ccc2ccccc2n1	%	9

Give me inhibition at 100 µM for each of these compounds, listed below.
1. CC(C)[C@H](NC(=O)c1ccc2ccccc2n1)C(=O)N[C@H](/C=C/S(C)(=O)=O)CC(=O)O
2. CC(C)(C)[C@H](NC(=O)c1ccc2ccccc2n1)C(=O)N1CCC[C@@H]1C(=O)N[C@H](/C=C/S(C)(=O)=O)CC(=O)O
3. CS(=O)(=O)/C=C/[C@H](CC(=O)O)NC(=O)[C@H]1CCC(=O)N1
4. CS(=O)(=O)/C=C/[C@H](CC(=O)O)NC(=O)C1CCCN1C(=O)[C@@H](NC(=O)[C@H](CC(=O)O)NC(=O)OCc1ccccc1)C1CC1 (stereo in doubt)

*A*
[0, 51, 0, 93]

Give me inhibition at 100 µM for each of these compounds, listed below.
1. CC(C)(C)[C@@H](NC(=O)[C@H](CC(=O)O)NC(=O)OCc1ccccc1)C(=O)N1CC[C@@H]1C(=O)N[C@H](/C=C/S(C)(=O)=O)CC(=O)O
2. CCOC(=O)/C=C/[C@@H](N)CC(=O)O [Compound 44, Asp ethyl vinyl ester tosyl salt]
3. CC(C)(C)[C@H](NC(=O)c1ccc2ncccc2n1)C(=O)N1CCCC1C(=O)N[C@H](/C=C/S(C)(=O)=O)CC(=O)O (stereo in doubt)
4. CC(C)(C)OC(=O)CC[C@H](NC(=O)OC(C)(C)C)C(=O)N[C@H](/C=C/S(C)(=O)=O)CC(=O)OC(C)(C)C
5. CCOC(=O)/C=C/[C@H](CC(=O)O)NC(=O)[C@H]1CCCN1C(=O)[C@@H](NC(=O)c1ccc2ccccc2n1)C(C)(C)C

*A*
1. 100
2. 0
3. 73
4. 10
5. 92

---

Counter-ions that a name gives are not always drawn.
For reference, IC50 measured on Caspase-2 (Homo sapiens):

Compound	Parameter	Readout Value
CC(C)(C)[C@H](NC(=O)c1ccc(N)c(Cl)c1)C(=O)N1CCCC1C(=O)N[C@H](/C=C/S(C)(=O)=O)CC(=O)O (stereo in doubt)	IC50	> 100 µM
CC(C)[C@H](NC(=O)[C@@H](N)Cc1ccc(O)cc1)C(=O)N[C@@H](C)C(=O)N[C@H](/C=C/S(C)(=O)=O)CC(=O)O	IC50	> 100 µM

Would you kindly look at the next entry?
*Q* May I ask what IC50 has been recorded for CCOC(=O)/C=C/[C@@H](N)CC(=O)O [Compound 44, Asp ethyl vinyl ester tosyl salt] ?
*A* > 100 µM

---

Target: Caspase-9 (Homo sapiens, UniProt P55211)
Construct: purchased BioVision K159-100
Sequence (P55211 1-315 limits assumed): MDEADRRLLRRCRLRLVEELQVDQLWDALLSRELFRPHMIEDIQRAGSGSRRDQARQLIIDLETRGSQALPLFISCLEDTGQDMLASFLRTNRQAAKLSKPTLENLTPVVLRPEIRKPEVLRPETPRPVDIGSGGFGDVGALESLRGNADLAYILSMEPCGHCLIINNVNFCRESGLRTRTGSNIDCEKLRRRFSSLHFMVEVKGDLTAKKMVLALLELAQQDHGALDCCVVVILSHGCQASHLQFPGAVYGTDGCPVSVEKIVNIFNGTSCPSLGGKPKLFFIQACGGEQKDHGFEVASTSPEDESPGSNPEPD
Sequence (P55211 331-416 limits assumed): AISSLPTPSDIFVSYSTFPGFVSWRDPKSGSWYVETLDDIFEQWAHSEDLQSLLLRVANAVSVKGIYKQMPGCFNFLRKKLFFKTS
Assay: Caspase-9 inhibitor screening assay (BioVision kit, LEHD-AFC)
Format: biochemical
Conditions: 100 uM; read-out: % Inhibition at 100 uM Casp9
Classify as follows. Reported inhibition at 100 µM greater than or equal to 90%: TRUE. Reported inhibition at 100 µM below: FALSE.

*Q* Reported inhibition at 100 µM at or above 90%? CS(=O)(=O)/C=C/[C@H](CC(=O)O)NC(=O)[C@@H](N)CCC(=O)O [Compound 22, Glu-Asp methylsulfone]
*A* FALSE

*Q* Reported inhibition at 100 µM at or above 90%? CC(C)(C)[C@H](NC(=O)[C@H](CC(=O)O)NC(=O)OCc1ccccc1)C(=O)N1CCCC1C(=O)N[C@H](/C=C/S(C)(=O)=O)CC(=O)O (stereo in doubt) [Compound 26, Z-Asp-t-Leu-Pro-Asp-methyl vinyl sulfone]
*A* TRUE

*Q* Reported inhibition at 100 µM at or above 90%? CC(C)[C@H](NC(=O)[C@H](Cc1cn(C)c2ccccc12)NC(=O)[C@H](CC(=O)O)NC(=O)OCc1ccccc1)C(=O)N[C@H](/C=C/S(C)(=O)=O)CC(=O)O [Compound 36]
*A* FALSE

*Q* Reported inhibition at 100 µM at or above 90%? CC(C)(C)[C@H](NC(=O)c1ccc(N)c(Cl)c1)C(=O)N1CCCC1C(=O)N[C@H](/C=C/S(C)(=O)=O)CC(=O)O (stereo in doubt) [Compound 14]
*A* TRUE
